Test system: Trypanosoma brucei rhodesiense
Test: Antiprotozoal activity against trypomastigote stage of Trypanosoma brucei rhodesiense STIB900 after 72 hrs by Alamar Blue assay
Type: functional, organism-based
Conditions: STIB900, 72 h
ENDPOINT LABEL: IC50

{"COMPOUND": "CC(C)C[C@@H](N)C(=O)N[C@@H](CC(C)C)C(=O)N(C)[C@@H](CC(C)C)C(=O)N(C)[C@@H](CC(C)C)C(=O)NCCc1ccccc1", "ENDPOINT LABEL": "IC50", "RESULT": "1.4 to 2.1 µg/mL"}
{"COMPOUND": "CN[C@@H](CC(C)C)C(=O)N(C)[C@@H](CC(C)C)C(=O)N(C)[C@@H](CC(C)C)C(=O)N(C)[C@@H](CC(C)C)C(=O)N(C)[C@H](CC(C)C)C(=O)NCCc1ccccc1", "ENDPOINT LABEL": "IC50", "RESULT": "1.4 to 2.1 µg/mL"}

In the following, a different compound is considered.
Give the measured IC50 for CCC(C)[C@H]1NC(=O)[C@@H](C(C)C)NC(=O)[C@H]([C@@H](C)O)NC(=O)[C@H](Cc2c[nH]c3ccccc23)NC(=O)[C@@H](NC(C)=O)[C@@H](C)OC(=O)[C@H](CC(C)C)NC1=O (stereo partly drawn) 31.6 µg/mL

* * *

Test system: Enterococcus faecalis
Test: Antibacterial activity against Enterococcus faecalis ATCC 29212 assessed as growth inhibition up to 128 ug/ml
Assay type: functional, organism-based
Activity calls are given as the source filed them. The calls are words filed in the database; no cut-off is given here. Non-standard residues stand in square brackets, D forms with d. Residues, ends and D or L forms follow the SMILES beside them. *: point of attachment. NH(4-OH-phenethyl) = Oc1ccc(CCN*)cc1; NMeF = CN[C@@H](Cc1ccccc1)C(=O)O; NMeL = CN[C@@H](CC(C)C)C(=O)O; NHPhenethyl = c1ccc(CCN*)cc1; NMeV = CN[C@H](C(=O)O)C(C)C
ENDPOINT LABEL: growth inhibition (GI)

{"COMPOUND": "CN[C@H](C(=O)N(C)[C@H](C(=O)N(C)[C@H](C(=O)N(C)[C@H](C(=O)N(C)[C@H](C(=O)N(C)[C@@H](Cc1ccccc1)C(=O)NCCc1ccccc1)C(C)C)C(C)C)C(C)C)C(C)C)C(C)C (H-[NMeV][NMeV][NMeV][NMeV][NMeV][NMeF]-NHPhenethyl)", "RESULT": "inactive"}
{"COMPOUND": "CN[C@@H](CC(C)C)C(=O)N(C)[C@@H](CC(C)C)C(=O)N(C)[C@@H](CC(C)C)C(=O)N(C)[C@@H](CC(C)C)C(=O)NCCc1ccc(O)cc1 (H-[NMeL][NMeL][NMeL][NMeL]-{NH(4-OH-phenethyl)})", "RESULT": "inactive"}

* * *

Test system: Trypanosoma brucei rhodesiense
Test: Antiprotozoal activity against trypomastigote stage of Trypanosoma brucei rhodesiense STIB900 after 72 hrs by Alamar Blue assay
Type: functional, organism-based
Conditions: STIB900, 72 h
Non-standard residues stand in square brackets, D forms with d. Residues, ends and D or L forms follow the SMILES beside them. *: point of attachment. NH(2-(1-naphthyl)ethyl) = c1ccc2c(CCN*)cccc2c1; NMeL = CN[C@@H](CC(C)C)C(=O)O; NHPhenethyl = c1ccc(CCN*)cc1; NMeV = CN[C@H](C(=O)O)C(C)C; NMeC = CN[C@@H](CS)C(=O)O
ENDPOINT LABEL: IC50 (µg/mL)

{"COMPOUND": "CN[C@@H](CC(C)C)C(=O)N(C)[C@@H](CC(C)C)C(=O)N(C)[C@@H](CC(C)C)C(=O)N(C)[C@@H](CS)C(=O)NCCc1cccc2ccccc12 (H-[NMeL][NMeL][NMeL][NMeC]-{NH(2-(1-naphthyl)ethyl)})", "TARGET": "Trypanosoma brucei rhodesiense", "ENDPOINT LABEL": "IC50", "UNIT OF MEASUREMENT": "µg/mL", "NUMERIC VALUE": 7.5}

I: CN[C@@H](CC(C)C)C(=O)N(C)[C@@H](CC(C)C)C(=O)N(C)[C@@H](CC(C)C)C(=O)N(C)[C@@H](CS)C(=O)NCCc1ccccc1 (H-[NMeL][NMeL][NMeL][NMeC]-NHPhenethyl)
II: CN[C@@H](CC(C)C)C(=O)N(C)[C@@H](CC(C)C)C(=O)N(C)[C@H](CC(C)C)C(=O)N(C)[C@@H](CC(C)C)C(=O)NCCc1ccccc1
III: CN[C@H](C(=O)N(C)[C@H](C(=O)N(C)[C@H](C(=O)N(C)[C@@H](CS)C(=O)NCCc1ccccc1)C(C)C)C(C)C)C(C)C (H-[NMeV][NMeV][NMeV][NMeC]-NHPhenethyl)
Given 3 compounds, produce a descending ranking by IC50. As an answer, provide the labels arranged in the order called for. II, I, III

* * *

Test: Half life in Galleria mellonella hemolymph plasma at 0.5 mM by HPLC-MS method
Type: ADME, cell-free
Residues, ends and D or L forms follow the SMILES beside them. *: point of attachment. NHPhenethyl = c1ccc(CCN*)cc1
ENDPOINT LABEL: half-life at 500 µM (min)
Kindly provide the numeric value in min only, without the unit symbol.

{"COMPOUND": "CC(C)[C@H](N)C(=O)N[C@H](C(=O)N[C@H](C(=O)N[C@H](C(=O)NCCc1ccccc1)C(C)C)C(C)C)C(C)C (H-VVVV-NHPhenethyl)", "NUMERIC VALUE": 30}

Tell me half-life at 500 µM reported for CC(C)C[C@H](NC(=O)[C@@H](NC(=O)[C@@H](NC(=O)[C@@H](N)C(C)C)C(C)C)C(C)C)C(=O)NCCc1ccccc1 (H-VVVL-NHPhenethyl) 30

* * *

Test system: Enterococcus faecalis
Experiment: Antibacterial activity against Enterococcus faecalis ATCC 29212 assessed as growth inhibition up to 128 ug/ml
Assay type: functional, organism-based
The source made the active and inactive calls. No cut-off for these calls is given here. Non-standard residues stand in square brackets, D forms with d. Residues, ends and D or L forms follow the SMILES beside them. *: point of attachment. NMeL = CN[C@@H](CC(C)C)C(=O)O; NHPhenethyl = c1ccc(CCN*)cc1; NMeV = CN[C@H](C(=O)O)C(C)C
ENDPOINT LABEL: growth inhibition (GI)

{"COMPOUND": "CN[C@H](C(=O)N(C)[C@H](C(=O)N(C)[C@H](C(=O)N(C)[C@H](C(=O)N(C)[C@H](C(=O)N(C)[C@@H](CC(C)C)C(=O)NCCc1ccccc1)C(C)C)C(C)C)C(C)C)C(C)C)C(C)C (H-[NMeV][NMeV][NMeV][NMeV][NMeV][NMeL]-NHPhenethyl)", "RESULT": "inactive"}
{"COMPOUND": "CN[C@H](C(=O)N(C)[C@H](C(=O)N(C)[C@H](C(=O)N(C)[C@H](C(=O)NCCc1ccccc1)C(C)C)C(C)C)C(C)C)C(C)C (H-[NMeV][NMeV][NMeV][NMeV]-NHPhenethyl)", "RESULT": "inactive"}

* * *

Reported IC50 is given for each of the following compounds.
Tested on: Trypanosoma brucei rhodesiense
Assay: Antiprotozoal activity against trypomastigote stage of Trypanosoma brucei rhodesiense STIB900 after 72 hrs by Alamar Blue assay
Format: functional, organism-based
Details: STIB900, 72 h
Non-standard residues stand in square brackets, D forms with d. Residues, ends and D or L forms follow the SMILES beside them. *: point of attachment. NH(2-(1-naphthyl)ethyl) = c1ccc2c(CCN*)cccc2c1; NMeL = CN[C@@H](CC(C)C)C(=O)O

Reference set, count: 4
{"COMPOUND": "CN[C@H](CC(C)C)C(=O)N(C)[C@H](CC(C)C)C(=O)N(C)[C@H](CC(C)C)C(=O)N(C)[C@H](CC(C)C)C(=O)NCCc1ccccc1", "TARGET": "Trypanosoma brucei rhodesiense", "IC50": "1.4 to 2.1 µg/mL"}
{"COMPOUND": "CN[C@@H](CC(C)C)C(=O)N(C)[C@H](CC(C)C)C(=O)N(C)[C@@H](CC(C)C)C(=O)N(C)[C@@H](CC(C)C)C(=O)NCCc1ccccc1", "TARGET": "Trypanosoma brucei rhodesiense", "IC50": "1.4 to 2.1 µg/mL"}
{"COMPOUND": "CN[C@@H](CC(C)C)C(=O)N(C)[C@@H](CC(C)C)C(=O)N(C)[C@@H](CC(C)C)C(=O)N(C)[C@@H](CC(C)C)C(=O)NCCc1ccccc1", "TARGET": "Trypanosoma brucei rhodesiense", "IC50": "1.4 to 2.1 µg/mL"}
{"COMPOUND": "CN[C@@H](CC(C)C)C(=O)N(C)[C@@H](CC(C)C)C(=O)N(C)[C@@H](CC(C)C)C(=O)N(C)[C@@H](CC(C)C)C(=O)NCCc1cccc2ccccc12 (H-[NMeL][NMeL][NMeL][NMeL]-{NH(2-(1-naphthyl)ethyl)})", "TARGET": "Trypanosoma brucei rhodesiense", "IC50": "1 µg/mL"}

Identify the reported IC50 for the following entry. CN[C@H](CC(C)C)C(=O)N(C)[C@@H](CC(C)C)C(=O)N(C)[C@@H](CC(C)C)C(=O)N(C)[C@@H](CC(C)C)C(=O)NCCc1ccccc1 1.4 to 2.1 µg/mL

Values from ChEMBL document CHEMBL4177762
